- Experimental System: HLA-B*58:01
- Assay: IEDB peptide-MHC binding, purified MHC/competitive/fluorescence; filed as Kd, often an IC50 or EC50 that approximates it; bounds were set here for any values at or beyond the usual limits of such assays
- Condition Context: source organism: Acinetobacter baumannii
pKd: −log10 of the molar value.
Result Type: pKd

> print(dat)
   sequence.string  result.type  result
1        SIYAGNTPK          pKd  ≤ 4.70

---

- Experimental System: HLA-A*26:01
- Assay: IEDB peptide-MHC binding, purified MHC/competitive/fluorescence; filed as Kd, often an IC50 or EC50 that approximates it; bounds were set here for any values at or beyond the usual limits of such assays
- Condition Context: source organism: Salmonella enterica subsp. enterica serovar Typhimurium str. LT2
Result Type: Kd

> print(dat)
   sequence.string  result.type   result
1        ILNSDDEQA           Kd  ≥ 20 µM

---

- Experimental System: HLA-A*31:01
- Assay: IEDB peptide-MHC binding, purified MHC/competitive/radioactivity; filed as Kd, often an IC50 or EC50 that approximates it; bounds were set here for any values at or beyond the usual limits of such assays
- Condition Context: source organism: Vaccinia virus WR
pKd: −log10 of the molar value.
Class assignment keyed on pKd, ranges Low (below 6), Mid (6 to below 7), High (7 or more)

> print(dat)
    sequence.string   cat
 1        LMWNKQFIK  High
 2       GMNDYLGIFK   Mid
 3       DFWRLYNSLK   Low
 4       VLEIINDKGK   Low
 5        EMVDELVTR  High
 6        FAYVMNIER  High
 7       EVRIPVDLVK   Low
 8       MSRGYFEHMK  High
 9       IPFIAYFVLM   Mid
10        PTKRCRLLK   Low
11       CSRMLDTSEK   Low
12        ALDGTFQRK   Low
13       LSCAVHLIIY   Low
14        KAMLYIIRR  High
15        NMINKLYGY   Low
16       ATDYIASGQR   Mid
17       LVTRKCPQKK   Low
18       YTISSESLVY   Low
19       MSRVRISLIY   Low
20        PLTSLVITY   Low
21       GINNVQSLIK   Low
22        YIIRVTTEL   Low
23       TIISEEYLSK   Low
24       LISLNSMYTR  High
25       STQSVLCVKK   Mid
26        YITDDSDDY   Low
27       KAGNILFWPY   Low
28       LLNETAKVIK   Low
29       IIDAKNDDWK   Low
30       VFKGFSDKVR   Mid

---

- Experimental System: HLA-A*31:01
- Assay: IEDB peptide-MHC binding, purified MHC/direct/fluorescence; filed as Kd, often an IC50 or EC50 that approximates it; bounds were set here for any values at or beyond the usual limits of such assays
- Condition Context: source organism: Aggregatibacter actinomycetemcomitans
Result Type: Kd

> print(dat)
   sequence.string  experimental.system   result
1        RSEVELCIY          HLA-A*31:01  ≥ 20 µM

---

- Experimental System: HLA-B*35:01
- Assay: IEDB peptide-MHC binding, purified MHC/competitive/radioactivity; filed as Kd, often an IC50 or EC50 that approximates it; bounds were set here for any values at or beyond the usual limits of such assays
- Condition Context: source organism: Triticum aestivum
Result Type: Kd (nM)

> print(dat)
   sequence.string  reading.unit  quantitative.result
1        LPYPQPQPF            nM                 2.53

---

- Experimental System: HLA-B*57:01
- Assay: IEDB peptide-MHC binding, purified MHC/competitive/fluorescence; filed as Kd, often an IC50 or EC50 that approximates it; bounds were set here for any values at or beyond the usual limits of such assays
- Condition Context: source organism: Streptococcus pneumoniae TIGR4
Result Type: Kd

> print(dat)
   sequence.string  experimental.system   result
1        CLSDEINHV          HLA-B*57:01  ≥ 20 µM

---

- Experimental System: HLA-A*11:01
- Assay: IEDB peptide-MHC binding, purified MHC/competitive/radioactivity; filed as Kd, often an IC50 or EC50 that approximates it; bounds were set here for any values at or beyond the usual limits of such assays
- Condition Context: source organism: Lassa virus Josiah
Below is a list of entries, each paired with its recorded Kd value.
Result Type: Kd (nM)

> print(dat)
   sequence.string  result.type  reading.unit  quantitative.result
1       LTYSQLMTLK           Kd            nM                 11.5
2        VTFLLLCGR           Kd            nM                 18.2

---

- Experimental System: HLA-A*31:01
- Assay: IEDB peptide-MHC binding, purified MHC/competitive/fluorescence; filed as Kd, often an IC50 or EC50 that approximates it; bounds were set here for any values at or beyond the usual limits of such assays
- Condition Context: source organism: Human immunodeficiency virus 1
Result Type: Kd (µM)

> print(dat)
   sequence.string  reading.unit  quantitative.result
1        VLYCVHQRV            µM                 11.9

---

Below is a list of entries, each paired with its recorded IC50 value.
- Experimental System: HLA-A*11:01
- Assay: IEDB peptide-MHC binding, purified MHC/competitive/fluorescence; bounds were set here for any values at or beyond the usual limits of such assays
- Condition Context: source organism: Zaire ebolavirus
Result Type: IC50 (µM)

> print(dat)
   sequence.string  result.type  result.operator  quantitative.result
1        TFSILNRKA         IC50                =                 66.5
2        GRRTRREAI         IC50                ≥                  297
3        QRVIPVYQV         IC50                =                 16.2
4        LDGQQFYWP         IC50                ≥                  150
5        DYHKILTAG         IC50                =                 58.5
6        NVPGPHRTI         IC50                =                 54.4
7        MVQVHSQGR         IC50                =                 4.76

---

- Experimental System: HLA-B*58:01
- Assay: IEDB peptide-MHC binding, purified MHC/direct/fluorescence; filed as Kd, often an IC50 or EC50 that approximates it; bounds were set here for any values at or beyond the usual limits of such assays
- Condition Context: source organism: Haemophilus influenzae
pKd: −log10 of the molar value.
Result Type: pKd

> print(dat)
   sequence.string  result.type  result
1        LAEQFSGEY          pKd  ≤ 4.70

---

- Experimental System: HLA-A*68:02
- Assay: IEDB peptide-MHC binding, purified MHC/competitive/radioactivity; filed as Kd, often an IC50 or EC50 that approximates it; bounds were set here for any values at or beyond the usual limits of such assays
- Condition Context: source organism: Dengue virus 1 Brazil/97-11/1997
Result Type: Kd (nM)

> print(dat)
   sequence.string  reading.unit  quantitative.result
1       RTTWALCESI            nM                  139

---

- Experimental System: HLA-B*44:02
- Assay: IEDB peptide-MHC binding, purified MHC/direct/fluorescence; filed as Kd, often an IC50 or EC50 that approximates it; bounds were set here for any values at or beyond the usual limits of such assays
- Condition Context: source organism: Yellow fever virus
pKd: −log10 of the molar value.
Result Type: pKd

> print(dat)
   sequence.string  experimental.system  result
1        SSARYDVAL          HLA-B*44:02  ≤ 4.70

---

- Experimental System: HLA-C*15:02
- Assay: IEDB peptide-MHC binding, purified MHC/direct/fluorescence; filed as Kd, often an IC50 or EC50 that approximates it; bounds were set here for any values at or beyond the usual limits of such assays
- Condition Context: source organism: Mycobacterium tuberculosis variant bovis BCG str. Pasteur 1173P2
pKd: −log10 of the molar value.
Result Type: pKd

> print(dat)
   sequence.string  result
1        KSRRFTVRF  ≤ 4.70
